- Test system: SK-MEL-2 melanoma
- assay_notes: NCI tumour cell line growth inhibition, 48 h
quantity_name: TGI (µM)

compound | assayed_target | quantity_name | value_unit | modifier_sign | observed_measurement
C=CCN1C(=O)c2cccc3c(N4CCOCC4)ccc(c23)C1=O | SK-MEL-2 melanoma | TGI | µM | = | 0.675
CCCC[C@H](NC(=O)[C@H]1CCCCN1C)C(=O)N(C)[C@H](C[C@@H](OC(C)=O)c1nc(C(=O)N[C@@H](Cc2ccccc2)C[C@H](C)C(=O)OCC)cs1)C(C)C | SK-MEL-2 melanoma | TGI | µM | = | 13.7
COc1ccc(C(=O)N2c3ccccc3N(C)n3cccc3C2CC(=O)O)cc1 (configuration not stated) | SK-MEL-2 melanoma | TGI | µM | > | 100
O=C(CCc1nnc2s/c(=C\c3ccccc3[N+](=O)[O-])c(=O)n12)Nc1cc(Cl)c(Cl)cc1Cl | SK-MEL-2 melanoma | TGI | µM | > | 100
O=C(C1OC1c1ccc(F)cc1)C12CC3CC(CC(C3)C1)C2 (configuration not stated) | SK-MEL-2 melanoma | TGI | µM | = | 30.6
COC(=O)c1oc([N+](=O)[O-])c(Cl)c1Cl | SK-MEL-2 melanoma | TGI | µM | = | 31.6
CCCCC(CCCCCC(CCCC)C1NC(C)Cc2cc(OC)c(OC)cc21)C1NC(C)Cc2cc(OC)c(OC)cc21 (configuration not stated) | SK-MEL-2 melanoma | TGI | µM | = | 3.88
C=C1CC(C)(COc2ccc3c(C)c(C)c(=O)oc3c2C)OC1=O (configuration not stated) | SK-MEL-2 melanoma | TGI | µM | = | 5.58
Nc1ncnc2c1ncc(=O)n2C1CC(O)C(CO)O1 (configuration not stated) | SK-MEL-2 melanoma | TGI | µM | > | 100
CCOC(=O)CC[C@H](NC(=O)c1[nH]cnc1/N=N/N(C)C)C(=O)OCC | SK-MEL-2 melanoma | TGI | µM | > | 100
O=c1[nH]cnc2c1sc(=S)n2-c1ccccc1 | SK-MEL-2 melanoma | TGI | µM | > | 100
CN(C)CCn1c(=O)c2ccc(NCCCN(C)CCCNc3ccc4c(=O)n(CCN(C)C)c(=O)n5c6ccccc6c(=O)c3c45)c3c(=O)c4ccccc4n(c1=O)c23 | SK-MEL-2 melanoma | TGI | µM | = | 2.44
